- SYSTEM NAME: UniProt Q9GZQ8
pKd: −log10 of the molar value.
MEASUREMENT KIND: pKd

1. O=C(CCCC[C@H]1SC[C@H]2NC(=O)N[C@H]21)NCCCCCC(=O)NNCc1ccc(C(=O)Nc2nc(-c3ccccn3)cs2)cc1 [Compound 8]
4.74

---

- SYSTEM NAME: PfAtg8-PfAtg3 interaction (Plasmodium falciparum)
- Construct: rows headed: SPR-IC50
- Sequence (Q8IJK2 1-124 C32I/C119S/C122S): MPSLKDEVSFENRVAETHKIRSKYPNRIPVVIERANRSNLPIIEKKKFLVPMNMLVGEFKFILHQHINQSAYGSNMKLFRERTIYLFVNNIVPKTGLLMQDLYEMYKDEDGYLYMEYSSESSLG
- ASSAY PROTOCOL: SPR protein-protein interaction assay, PfAtg8-PfAtg3 (VLS compounds)
- Type: binding, P. falciparum
- CONDITION DESCRIPTION: read-out: SPR-IC50; dose-dependent inhibition of plasmodial Atg8-Atg3
MEASUREMENT KIND: IC50 (µM)

1. Cc1cccc(CNC(=O)NCC2CCN(Cc3ccccn3)C2)c1 (stereo not shown)
18.5

The measured values listed here are drawn from patent US20170044150A1.
